Measurement Description: M. tuberculosis growth inhibition, HTS (AID 449762);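 further: bacterial growth assessed after seven days of incubation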
Run Conditions: M. tuberculosis H37Rv growth inhibition, 7H9 media; at 25 µM; hits give high values
In all, about 330,000 compounds went through this assay and about 1,900 (0.58%) were called active. Not shown: some 4% with an inconclusive outcome. Not all results are given here. Entries with a potency or affinity are not part of this list.
Measured inhibition, listed per entry for reference.
Readout Label: inhibition (%)

- CCOC(=O)CSc1snnc1C: -6.63
- O=C(c1ccccc1)N1N=C(c2ccccc2)CC1(O)C(F)(F)F (stereo unspecified): 17.4
- CS(=O)(=O)c1ccc(Cl)c(C(=O)OCC(=O)NC2CCCCCCC2)c1: -2.61
- COc1cc(SC)ccc1C(=O)OCC(=O)NC1CCCCC1: -4.21
- CCc1nc(N2CCN(C(=O)c3ccccc3)CC2)c(C#N)c2c1COC(C)(C)C2: 15.8
- CCOC(=O)CSc1nnc(-c2ccccc2)c(=O)[nH]1: -2.8
